Measured Property: pIC50
Friendly reminder that pIC50 comes from taking -log10 of the concentration in mol/L.

## Task Form entry - test system: Beta-secretase 1 (Homo sapiens, UniProt P56817); read-out: pIC50; compound: CC1(C)C=Cc2c(ccc(C(=O)/C=C/c3ccc(O)cc3)c2O)O1
Sequence (P56817 whole entry): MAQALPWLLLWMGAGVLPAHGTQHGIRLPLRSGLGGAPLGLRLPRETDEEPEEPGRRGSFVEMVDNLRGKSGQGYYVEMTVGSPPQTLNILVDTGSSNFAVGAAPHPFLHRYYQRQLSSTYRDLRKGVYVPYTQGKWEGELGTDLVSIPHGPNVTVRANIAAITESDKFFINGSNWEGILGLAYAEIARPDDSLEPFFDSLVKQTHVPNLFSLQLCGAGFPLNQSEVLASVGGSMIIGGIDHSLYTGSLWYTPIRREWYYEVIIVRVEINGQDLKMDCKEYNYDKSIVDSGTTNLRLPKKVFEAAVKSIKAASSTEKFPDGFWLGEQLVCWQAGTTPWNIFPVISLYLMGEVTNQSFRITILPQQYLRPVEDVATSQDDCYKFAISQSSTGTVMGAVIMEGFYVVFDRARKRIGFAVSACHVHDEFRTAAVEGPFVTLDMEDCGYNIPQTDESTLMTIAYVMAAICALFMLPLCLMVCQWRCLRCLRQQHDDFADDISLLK
## Result 5.01

###

# Experimental System: Acetylcholinesterase (Homo sapiens)
Measured Property: pKi
To interpret pKi, take it as minus log10 of a concentration measured in moles per litre.

## Task Please give the measured pKi for this compound: CC1(C)C=Cc2c(ccc(C(=O)/C=C/c3ccc(O)cc3)c2O)O1
## Result 5.13

###

# Experimental System: UniProt:P05067
# Test Details: Inhibition of amyloid beta (1 to 42) (unknown origin) self-aggregation at 20 uM incubated for 48 hrs by thioflavin-T fluorescence method
Calls of active or inactive are those of the source. The rule behind the calls is not given here.
Measured Property: inhibition

{"Molecule": "COc1cc(OC)c(-c2coc3c4c(ccc3c2=O)OC(C)(C)C=C4)cc1OC", "Result": "inactive"}
{"Molecule": "CC1(C)C=Cc2c(ccc3c2OC(c2ccc(O)cc2)CC3=O)O1 (stereo not given)", "Result": "50.9%"}
{"Molecule": "CC1(C)C=Cc2c(ccc(C(=O)/C=C/c3ccc(O)cc3)c2O)O1", "Result": "53.7%"}
{"Molecule": "COc1ccc(-c2coc3c4c(ccc3c2=O)OC(C)(C)C=C4)cc1OC", "Result": "inactive"}

###

# Experimental System: UniProtKB P22303
# Test Details: Binding affinity to AChE (unknown origin) assessed as reduction in intrinsic protein fluorescence at 25 degC by fluorescence spectrophotometry
Measured Property: IC50 (µM)
Number only, in µM; omit the unit.

## Task What measured IC50 is associated with CC1(C)C=Cc2c(ccc(C(=O)/C=C/c3ccc(O)cc3)c2O)O1 on UniProtKB P22303?
## Result 29.6

###

# Experimental System: UniProt P06276
Consider the following compounds; for each one, report its pKi.
In textbook form, pKi equals minus log to base ten of the concentration in mol/L.

## Task Please look up its pKi: COc1ccc(-c2coc3c4c(ccc3c2=O)OC(C)(C)C=C4)cc1OC
## Result 6.04

## Task Dear colleague, I am looking for the recorded pKi of the following compound: CC1(C)C=Cc2c(ccc3c2OC(c2ccc(O)cc2)CC3=O)O1 (stereo not drawn)
## Result 5.43

## Task Param item = CC1(C)C=Cc2c(ccc(C(=O)/C=C/c3ccc(O)cc3)c2O)O1 ; retrieve measured pKi.
## Result 5.46

###

# Experimental System: UniProt:P06276
# Test Details: Inhibition of BChE (unknown origin) at 20 ug/mL using butyrylthiocholine iodide as substrate by spectrophotometry based Ellman's method
Give t when the value for inhibition is at least 90%. Give f when it is less.

## Task In plain terms: is recorded inhibition at least 90% for COc1cc(OC)c(-c2coc3c4c(ccc3c2=O)OC(C)(C)C=C4)cc1OC ?
## Result f

## Task In plain terms: is recorded inhibition at least 90% for COc1ccc(C2CC(=O)c3ccc4c(c3O2)C=CC(C)(C)O4)cc1 (stereo unspecified) ?
## Result f

## Task Determine whether this molecule has inhibition no lower than 90%: COC1=CC(=O)C(OC)(OC)C=C1[C@@]1(O)C(=O)c2ccc3c(c2O[C@@H]1CO)C=CC(C)(C)O3
## Result f

## Task Would you say C=C(C)[C@H]1Cc2c(ccc3c2O[C@@H]2COc4cc(OC)c(OC)cc4[C@]2(O)C3=O)O1 shows inhibition at minimum 90%?
## Result f

## Task Kindly determine if inhibition recorded for CC1(C)C=Cc2c(ccc(C(=O)/C=C/c3ccc(O)cc3)c2O)O1 is above or exactly 90%.
## Result f

## Task Kindly determine if inhibition recorded for COc1cc2c(cc1OC)[C@@H]1C(=O)c3ccc4c(c3O[C@@H]1CO2)C=CC(C)(C)O4 is above or exactly 90%.
## Result f

## Task Answer whether inhibition of COc1ccc(/C=C/C(=O)c2ccc3c(c2O)C=CC(C)(C)O3)cc1 is greater than or equal to 90%.
## Result f

## Task Threshold query (inhibition >= 90%) on COc1ccc2c3c1O[C@H]1C[C@@H](O)C=C[C@@]31CCN(C)C2
## Result t

## Task Is inhibition for COc1cc2c(cc1OC)[C@]1(O)C(=O)c3ccc4c(c3O[C@@H]1CO2)C=CC(C)(C)O4 at or above 90%?
## Result f

## Task Is inhibition at least 90%? Consider COc1ccc(-c2coc3c4c(ccc3c2=O)OC(C)(C)C=C4)cc1OC
## Result t

###

# Experimental System: Cholinesterase (Homo sapiens)
# Sequence (P06276 whole entry): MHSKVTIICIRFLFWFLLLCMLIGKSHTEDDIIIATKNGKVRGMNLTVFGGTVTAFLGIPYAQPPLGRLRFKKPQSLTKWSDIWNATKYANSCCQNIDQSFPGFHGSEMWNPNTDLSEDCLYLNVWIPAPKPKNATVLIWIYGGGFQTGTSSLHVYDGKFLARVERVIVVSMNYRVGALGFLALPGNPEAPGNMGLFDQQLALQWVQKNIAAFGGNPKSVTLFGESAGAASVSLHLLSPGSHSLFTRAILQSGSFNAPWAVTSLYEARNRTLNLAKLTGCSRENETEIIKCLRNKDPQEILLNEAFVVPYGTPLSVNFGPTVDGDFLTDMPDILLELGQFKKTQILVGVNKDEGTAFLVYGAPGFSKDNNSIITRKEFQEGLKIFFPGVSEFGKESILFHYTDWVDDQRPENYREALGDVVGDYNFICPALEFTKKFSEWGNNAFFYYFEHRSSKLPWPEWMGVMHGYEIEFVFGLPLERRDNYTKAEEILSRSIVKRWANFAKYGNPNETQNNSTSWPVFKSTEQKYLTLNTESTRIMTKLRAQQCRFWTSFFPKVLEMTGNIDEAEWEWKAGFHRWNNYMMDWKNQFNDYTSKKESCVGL
# Test Details: Binding affinity to BChE (unknown origin) assessed as reduction in intrinsic protein fluorescence at 25 degC by fluorescence spectrophotometry
Assign IC50 to each entry below.

## Task # IC50 lookup, item CC1(C)C=Cc2c(ccc3c2OC(c2ccc(O)cc2)CC3=O)O1 (stereo not drawn)
## Result 3.57 µM

## Task // IC50 lookup, key: CC1(C)C=Cc2c(ccc(C(=O)/C=C/c3ccc(O)cc3)c2O)O1
## Result 2.57 µM

## Task Consider the compound COc1ccc(-c2coc3c4c(ccc3c2=O)OC(C)(C)C=C4)cc1OC and give its measured IC50.
## Result 7.82 µM

###

# Experimental System: Acetylcholinesterase (Homo sapiens, UniProt P22303)
# Sequence (P22303 whole entry): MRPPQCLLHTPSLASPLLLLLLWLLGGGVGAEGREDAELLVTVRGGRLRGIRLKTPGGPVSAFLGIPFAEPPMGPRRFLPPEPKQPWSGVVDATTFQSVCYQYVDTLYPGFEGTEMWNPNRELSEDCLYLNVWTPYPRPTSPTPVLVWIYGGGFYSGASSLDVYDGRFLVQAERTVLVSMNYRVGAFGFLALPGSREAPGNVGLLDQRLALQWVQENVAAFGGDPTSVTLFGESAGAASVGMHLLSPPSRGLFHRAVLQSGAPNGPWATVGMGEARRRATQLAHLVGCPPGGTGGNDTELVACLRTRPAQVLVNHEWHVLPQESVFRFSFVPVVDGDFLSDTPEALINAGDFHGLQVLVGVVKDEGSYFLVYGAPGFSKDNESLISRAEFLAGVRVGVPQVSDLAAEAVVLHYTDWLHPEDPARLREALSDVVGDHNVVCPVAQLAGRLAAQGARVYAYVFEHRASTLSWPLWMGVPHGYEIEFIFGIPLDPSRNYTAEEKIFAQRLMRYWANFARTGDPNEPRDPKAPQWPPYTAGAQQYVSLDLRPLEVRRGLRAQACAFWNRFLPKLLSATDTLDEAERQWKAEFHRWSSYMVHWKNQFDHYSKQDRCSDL
# Test Details: Inhibition of AChE (unknown origin) using acetylthiocholine iodide as substrate by spectrophotometry based Ellman's method
# Experimental Conditions: read-out: IC50
Measured Property: IC50 (µM)
Give just the numeric value; µM need not be written.

## Task Quick one: IC50 for COc1cc2c(cc1OC)[C@]1(O)C(=O)c3ccc4c(c3O[C@@H]1CO2)C=CC(C)(C)O4 ?
## Result 127

## Task // lookup IC50 for COc1cc2c(cc1OC)[C@@H]1C(=O)c3ccc4c(c3O[C@@H]1CO2)C=CC(C)(C)O4
## Result 127

## Task // lookup IC50 for COc1cc(OC)c(-c2coc3c4c(ccc3c2=O)OC(C)(C)C=C4)cc1OC
## Result 122

## Task Form field: reported IC50 of COc1ccc(-c2coc3c4c(ccc3c2=O)OC(C)(C)C=C4)cc1OC
## Result 131

## Task State the recorded IC50 for this entry: COc1ccc(C2CC(=O)c3ccc4c(c3O2)C=CC(C)(C)O4)cc1 (configuration not stated)
## Result 91.1

## Task Recorded IC50 of COc1ccc(/C=C/C(=O)c2ccc3c(c2O)C=CC(C)(C)O3)cc1 , please.
## Result 74.7

## Task Query: IC50; subject: CC1(C)C=Cc2c(ccc(C(=O)/C=C/c3ccc(O)cc3)c2O)O1
## Result 17.1

###

# Experimental System: Amyloid-beta precursor protein (Homo sapiens) (UniProt P05067)
# Sequence (P05067 whole entry): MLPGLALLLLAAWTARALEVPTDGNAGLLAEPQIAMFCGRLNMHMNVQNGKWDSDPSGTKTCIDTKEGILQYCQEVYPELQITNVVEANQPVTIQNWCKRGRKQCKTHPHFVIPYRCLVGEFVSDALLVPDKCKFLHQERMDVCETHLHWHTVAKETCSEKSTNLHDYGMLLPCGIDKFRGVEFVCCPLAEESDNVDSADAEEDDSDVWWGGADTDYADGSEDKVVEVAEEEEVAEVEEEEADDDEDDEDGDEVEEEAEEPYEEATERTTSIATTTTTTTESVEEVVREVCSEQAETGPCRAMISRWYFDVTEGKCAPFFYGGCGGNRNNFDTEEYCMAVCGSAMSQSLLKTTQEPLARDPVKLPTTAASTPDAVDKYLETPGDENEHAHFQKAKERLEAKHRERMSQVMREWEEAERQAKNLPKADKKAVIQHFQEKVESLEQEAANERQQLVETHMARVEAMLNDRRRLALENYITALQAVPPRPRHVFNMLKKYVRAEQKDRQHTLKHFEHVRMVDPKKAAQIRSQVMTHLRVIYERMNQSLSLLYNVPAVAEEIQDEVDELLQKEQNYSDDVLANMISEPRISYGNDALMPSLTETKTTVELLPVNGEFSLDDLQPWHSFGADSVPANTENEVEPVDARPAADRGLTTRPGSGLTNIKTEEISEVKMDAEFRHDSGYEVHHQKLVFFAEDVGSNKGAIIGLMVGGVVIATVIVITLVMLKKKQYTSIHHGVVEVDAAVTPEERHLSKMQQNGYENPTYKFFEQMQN
# Test Details: Inhibition of amyloid beta (1 to 42) (unknown origin) self-aggregation at 80 uM incubated for 48 hrs by thioflavin-T fluorescence method
Calls of active or inactive are those of the source. No cut-off for these calls is given here.

{"Molecule": "COc1cc(OC)c(-c2coc3c4c(ccc3c2=O)OC(C)(C)C=C4)cc1OC", "inhibition": "inactive"}
{"Molecule": "CC1(C)C=Cc2c(ccc3c2OC(c2ccc(O)cc2)CC3=O)O1 (stereo not given)", "inhibition": "73.5%"}
{"Molecule": "CC1(C)C=Cc2c(ccc(C(=O)/C=C/c3ccc(O)cc3)c2O)O1", "inhibition": "73.3%"}
{"Molecule": "COc1ccc(-c2coc3c4c(ccc3c2=O)OC(C)(C)C=C4)cc1OC", "inhibition": "inactive"}

###

# Experimental System: Cholinesterase (Homo sapiens)
# Test Details: Inhibition of BChE (unknown origin) using butyrylthiocholine iodide as substrate by spectrophotometry based Ellman's method
# Experimental Conditions: read-out: IC50
Kindly state IC50 for each of the entries shown.
Kindly answer with a numeric value in µM, unit omitted.

## Task Record request: IC50 value, item COc1ccc(/C=C/C(=O)c2ccc3c(c2O)C=CC(C)(C)O3)cc1
## Result 102

## Task So what does the record say about IC50 for CC1(C)C=Cc2c(ccc(C(=O)/C=C/c3ccc(O)cc3)c2O)O1 ?
## Result 5.68

## Task Which IC50 value belongs to COc1cc(OC)c(-c2coc3c4c(ccc3c2=O)OC(C)(C)C=C4)cc1OC ?
## Result 21.8

## Task Query (compound): COc1ccc(C2CC(=O)c3ccc4c(c3O2)C=CC(C)(C)O4)cc1 (stereo unspecified) ; field requested: IC50
## Result 225

## Task Bench note: what IC50 did CC1(C)C=Cc2c(ccc3c2OC(c2ccc(O)cc2)CC3=O)O1 (stereo unspecified) show?
## Result 11.5

## Task I'd like to know its IC50. The compound in question is COc1ccc(-c2coc3c4c(ccc3c2=O)OC(C)(C)C=C4)cc1OC
## Result 2.34
